Inhibition: recorded values
Test system: Klebsiella pneumoniae
CONDITION_LABEL: Concentration 20 uM; ASSAY_TEST Inhibition of Bacterial Growth; detection method Absorption (OD600); MEDIA CAMHB; plate type 384well; NBS; CORNING #3640; time 18 hr
Description: Antibacterial activity against Klebsiella pneumoniae MDR ATCC 70063 (CO-ADD:GN_003); MIC in CAMBH media using NBS plates, by OD(600)
Entries with a potency or affinity are not part of this list.
ASSAY_METRIC: Inhibition (%)

INSERT INTO assay_data (compound, assay_metric, observed_result) VALUES
  ('COc1ccccc1N1CCN(CC(O)COc2cccc3ccccc23)CC1 (stereo not drawn) [NAFTOPIDIL]', 'Inhibition', -0.32),
  ('NC(=O)c1cccnc1 [NIACINAMIDE]', 'Inhibition', 11.31),
  ('CC[C@H]1OC(=O)[C@H](C)C(=O)[C@H](C)[C@@H](O[C@@H]2O[C@H](C)C[C@H](N(C)C)[C@H]2O)[C@](C)(OC)C[C@@H](C)C(=O)[C@H](C)[C@@H]2N(CCCCn3cnc(-c4cccnc4)c3)C(=O)O[C@@]21C', 'Inhibition', 3.48);

---

Tested on: Klebsiella pneumoniae
CONDITION_LABEL: Concentration 20 uM; ASSAY_TEST Inhibition of Bacterial Growth; detection method Absorption (OD600); MEDIA CAMHB; plate type 384well; NBS; CORNING #3640; time 18 hr
Results with a measured potency or affinity are listed apart.
ASSAY_METRIC: Inhibition (%)

INSERT INTO results (molecule, target_system, unit_text, observed_result) VALUES
  ('CN1CCN(CCCN2c3ccccc3Sc3ccc(Cl)cc32)CC1.O=C(O)/C=C\C(=O)O.O=C(O)/C=C\C(=O)O [PROCHLORPERAZINE MALEATE]', 'Klebsiella pneumoniae', '%', 14.2),
  ('Cl.O.c1cnc(N2CCN(Cc3ccc4c(c3)OCO4)CC2)nc1', 'Klebsiella pneumoniae', '%', 3.33),
  ('CC(O)CO.N[C@@H](C(=O)N[C@@H]1C(=O)N2C(C(=O)O)=C(CSc3c[nH]nn3)CS[C@H]12)c1ccc(O)cc1', 'Klebsiella pneumoniae', '%', 6.28),
  ('CCC(CO)NCCNC(CC)CO (stereo not drawn)', 'Klebsiella pneumoniae', '%', 10.98),
  ('O=C1N=C([O-])NC1(c1ccccc1)c1ccccc1.[Na+] [PHENYTOIN SODIUM]', 'Klebsiella pneumoniae', '%', 7.94),
  ('CCCCNc1cc(C(=O)O)cc(S(N)(=O)=O)c1Oc1ccccc1 [BUMETANIDE]', 'Klebsiella pneumoniae', '%', 11.75),
  ('CC(C)[C@H]1CC[C@H](C(=O)N[C@H](Cc2ccccc2)C(=O)O)CC1 [NATEGLINIDE]', 'Klebsiella pneumoniae', '%', 12.08),
  ('C[C@@H]1O[C@@H](OC[C@H]2O[C@@H](Oc3c(-c4ccc(O)c(O)c4)oc4cc(O)cc(O)c4c3=O)[C@H](O)[C@@H](O)[C@@H]2O)[C@H](O)[C@H](O)[C@H]1O', 'Klebsiella pneumoniae', '%', 10.13);
